B1: HDV Ribozyme (parent)
chain: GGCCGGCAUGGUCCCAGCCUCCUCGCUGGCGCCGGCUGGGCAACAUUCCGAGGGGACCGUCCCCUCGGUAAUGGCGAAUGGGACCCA

Variants of: B1
Experiment: self-cleavage, relative activity (ratio to wild type); higher = more cleavage; co-transcriptional
Hi, to clarify the labels: Fulfilled covers self-cleavage from 0.7 upward, Not fulfilled covers anything below 0.7.

input: # check: self-cleavage of G10C G59U is greater than or equal to 0.7
output: Fulfilled

input: # check: self-cleavage of C13G G34U is greater than or equal to 0.7
output: Not fulfilled

input: # check: self-cleavage of G25C A87U is greater than or equal to 0.7
output: Not fulfilled

input: # check: self-cleavage of A16U A42G is greater than or equal to 0.7
output: Not fulfilled

input: # check: self-cleavage of A78G C86G is greater than or equal to 0.7
output: Fulfilled

input: # check: self-cleavage of G11A A87U is greater than or equal to 0.7
output: Not fulfilled

input: # check: self-cleavage of C75A C86A is greater than or equal to 0.7
output: Not fulfilled

input: # check: self-cleavage of U9G C14A is greater than or equal to 0.7
output: Fulfilled

input: # check: self-cleavage of G38U C84G is greater than or equal to 0.7
output: Not fulfilled

input: # check: self-cleavage of G29A G34C is greater than or equal to 0.7
output: Not fulfilled

input: # check: self-cleavage of C24U C58U is greater than or equal to 0.7
output: Fulfilled

input: # check: self-cleavage of G39C A77G is greater than or equal to 0.7
output: Not fulfilled

input: # check: self-cleavage of U12A A83U is greater than or equal to 0.7
output: Not fulfilled

input: # check: self-cleavage of C33G G80U is greater than or equal to 0.7
output: Not fulfilled

input: # check: self-cleavage of U20C G54C is greater than or equal to 0.7
output: Not fulfilled

input: # check: self-cleavage of G2U A56G is greater than or equal to 0.7
output: Not fulfilled

input: # check: self-cleavage of U60C C66U is greater than or equal to 0.7
output: Fulfilled

input: # check: self-cleavage of G28A G74C is greater than or equal to 0.7
output: Not fulfilled

input: # check: self-cleavage of C48U U79G is greater than or equal to 0.7
output: Not fulfilled

input: # check: self-cleavage of C7U G54C is greater than or equal to 0.7
output: Fulfilled

input: # check: self-cleavage of A71G C75U is greater than or equal to 0.7
output: Not fulfilled

input: # check: self-cleavage of C66A A78C is greater than or equal to 0.7
output: Not fulfilled

input: # check: self-cleavage of G50A G76U is greater than or equal to 0.7
output: Fulfilled

input: # check: self-cleavage of G17C G29C is greater than or equal to 0.7
output: Not fulfilled

input: # check: self-cleavage of U60C G82U is greater than or equal to 0.7
output: Not fulfilled

input: # check: self-cleavage of C15G G74A is greater than or equal to 0.7
output: Not fulfilled
